These measurements were taken from patent US8846933B2.

System: Acinetobacter baumanii/haemolyticus: Multidrug-resistant clinical isolate (AB-3167)
test_protocol: MIC determination (CLSI), strain AB-3167
Type: cell-based
experimental_conditions: unit assumed
Can you tell me AB-3167 (MIC) for the items I'm about to list?

Answered examples (4):
{"compound": "C[C@@](CCn1ccc(-c2ccccc2)cc1=O)(C(=O)NO)S(C)(=O)=O", "assayed_target": "Acinetobacter baumanii/haemolyticus: Multidrug-resistant clinical isolate (AB-3167)", "AB-3167 (MIC)": "64 µg/mL"}
{"compound": "COc1ccc(-c2ccn(CC[C@](C)(C(=O)NO)S(C)(=O)=O)c(=O)c2)c(F)c1F", "assayed_target": "Acinetobacter baumanii/haemolyticus: Multidrug-resistant clinical isolate (AB-3167)", "AB-3167 (MIC)": "> 64 µg/mL"}
{"compound": "Cn1nccc1-c1ccc(-c2ccn(CC[C@](C)(C(=O)NO)S(C)(=O)=O)c(=O)c2)cc1", "assayed_target": "Acinetobacter baumanii/haemolyticus: Multidrug-resistant clinical isolate (AB-3167)", "AB-3167 (MIC)": "> 64 µg/mL"}
{"compound": "C[C@@](CCn1ccc(-c2ccc(OCC3CC(CO)C3)cc2)cc1=O)(C(=O)NO)S(C)(=O)=O (some centres unmarked)", "assayed_target": "Acinetobacter baumanii/haemolyticus: Multidrug-resistant clinical isolate (AB-3167)", "AB-3167 (MIC)": "> 64 µg/mL"}

// for each compound in input: emit AB-3167 (MIC)
1. C[C@@](CCn1ccc(-c2ccc(-c3nccs3)cc2)cc1=O)(C(=O)NO)S(C)(=O)=O
2. COc1ccc(COc2ccc(-c3ccn(CC[C@](C)(C(=O)NO)S(C)(=O)=O)c(=O)c3)cc2)cn1
3. C[C@@](CCn1ccc(-c2ccc(Cl)c(Cl)c2)cc1=O)(C(=O)NO)S(C)(=O)=O

Reply:
1: > 64 µg/mL; 2: > 64 µg/mL; 3: > 64 µg/mL

Ask: Tell me the measured AB-3167 (MIC) of `Cc1cccc(-c2ccn(CC[C@](C)(C(=O)NO)S(C)(=O)=O)c(=O)c2)c1Cl` , please.
Reply: 64 µg/mL

---

Test system: Acinetobacter baumanii/haemolyticus: Multidrug-resistant clinical isolate (AB-3167)
test_protocol: MIC determination (CLSI), strain AB-3167
Format: cell-based
experimental_conditions: unit assumed
property_measured: AB-3167 (MIC)

{"molecule": "COc1cnn(-c2ccc(-c3ccn(CC[C@](C)(C(=O)NO)S(C)(=O)=O)c(=O)c3)cc2)n1", "AB-3167 (MIC)": "> 64 µg/mL"}
{"molecule": "CC(CCn1ccc(C2CCCCC2)cc1=O)(C(=O)NO)S(C)(=O)=O (centres unmarked)", "AB-3167 (MIC)": "> 64 µg/mL"}
{"molecule": "C[C@@](CCn1ccc(N2CC(c3ccccc3)C2)cc1=O)(C(=O)NO)S(C)(=O)=O", "AB-3167 (MIC)": "> 64 µg/mL"}

Please give AB-3167 (MIC) for each item listed below.
1. C[C@@](CCn1ccc(-c2ccc(F)c(F)c2F)cc1=O)(C(=O)NO)S(C)(=O)=O
2. CC(C)(O)C1CC(Oc2ccc(-c3ccn(CC[C@](C)(C(=O)NO)S(C)(=O)=O)c(=O)c3)cc2)C1 (some centres unmarked)

Reply:
1. 64 µg/mL
2. > 64 µg/mL

Give AB-3167 (MIC) for each of the items listed below.
1. CC(CCn1ccc(-c2ccc(CCCO)cc2)cc1=O)(C(=O)NO)S(C)(=O)=O (centres unmarked)
2. COc1ccc(-c2ccn(CC[C@](C)(C(=O)NO)S(C)(=O)=O)c(=O)c2)c(F)c1
3. C[C@@](CCn1ccc(-c2ccc(-c3ccccc3)s2)cc1=O)(C(=O)NO)S(C)(=O)=O

Reply:
["> 64 µg/mL", "32 µg/mL", "> 64 µg/mL"]
